Origin of the recorded values: PubChem BioAssay

Experimental system: Neurogenic locus notch homolog protein 2 (Homo sapiens) (UniProt Q04721)
Sequence (Q04721 whole entry, looked up): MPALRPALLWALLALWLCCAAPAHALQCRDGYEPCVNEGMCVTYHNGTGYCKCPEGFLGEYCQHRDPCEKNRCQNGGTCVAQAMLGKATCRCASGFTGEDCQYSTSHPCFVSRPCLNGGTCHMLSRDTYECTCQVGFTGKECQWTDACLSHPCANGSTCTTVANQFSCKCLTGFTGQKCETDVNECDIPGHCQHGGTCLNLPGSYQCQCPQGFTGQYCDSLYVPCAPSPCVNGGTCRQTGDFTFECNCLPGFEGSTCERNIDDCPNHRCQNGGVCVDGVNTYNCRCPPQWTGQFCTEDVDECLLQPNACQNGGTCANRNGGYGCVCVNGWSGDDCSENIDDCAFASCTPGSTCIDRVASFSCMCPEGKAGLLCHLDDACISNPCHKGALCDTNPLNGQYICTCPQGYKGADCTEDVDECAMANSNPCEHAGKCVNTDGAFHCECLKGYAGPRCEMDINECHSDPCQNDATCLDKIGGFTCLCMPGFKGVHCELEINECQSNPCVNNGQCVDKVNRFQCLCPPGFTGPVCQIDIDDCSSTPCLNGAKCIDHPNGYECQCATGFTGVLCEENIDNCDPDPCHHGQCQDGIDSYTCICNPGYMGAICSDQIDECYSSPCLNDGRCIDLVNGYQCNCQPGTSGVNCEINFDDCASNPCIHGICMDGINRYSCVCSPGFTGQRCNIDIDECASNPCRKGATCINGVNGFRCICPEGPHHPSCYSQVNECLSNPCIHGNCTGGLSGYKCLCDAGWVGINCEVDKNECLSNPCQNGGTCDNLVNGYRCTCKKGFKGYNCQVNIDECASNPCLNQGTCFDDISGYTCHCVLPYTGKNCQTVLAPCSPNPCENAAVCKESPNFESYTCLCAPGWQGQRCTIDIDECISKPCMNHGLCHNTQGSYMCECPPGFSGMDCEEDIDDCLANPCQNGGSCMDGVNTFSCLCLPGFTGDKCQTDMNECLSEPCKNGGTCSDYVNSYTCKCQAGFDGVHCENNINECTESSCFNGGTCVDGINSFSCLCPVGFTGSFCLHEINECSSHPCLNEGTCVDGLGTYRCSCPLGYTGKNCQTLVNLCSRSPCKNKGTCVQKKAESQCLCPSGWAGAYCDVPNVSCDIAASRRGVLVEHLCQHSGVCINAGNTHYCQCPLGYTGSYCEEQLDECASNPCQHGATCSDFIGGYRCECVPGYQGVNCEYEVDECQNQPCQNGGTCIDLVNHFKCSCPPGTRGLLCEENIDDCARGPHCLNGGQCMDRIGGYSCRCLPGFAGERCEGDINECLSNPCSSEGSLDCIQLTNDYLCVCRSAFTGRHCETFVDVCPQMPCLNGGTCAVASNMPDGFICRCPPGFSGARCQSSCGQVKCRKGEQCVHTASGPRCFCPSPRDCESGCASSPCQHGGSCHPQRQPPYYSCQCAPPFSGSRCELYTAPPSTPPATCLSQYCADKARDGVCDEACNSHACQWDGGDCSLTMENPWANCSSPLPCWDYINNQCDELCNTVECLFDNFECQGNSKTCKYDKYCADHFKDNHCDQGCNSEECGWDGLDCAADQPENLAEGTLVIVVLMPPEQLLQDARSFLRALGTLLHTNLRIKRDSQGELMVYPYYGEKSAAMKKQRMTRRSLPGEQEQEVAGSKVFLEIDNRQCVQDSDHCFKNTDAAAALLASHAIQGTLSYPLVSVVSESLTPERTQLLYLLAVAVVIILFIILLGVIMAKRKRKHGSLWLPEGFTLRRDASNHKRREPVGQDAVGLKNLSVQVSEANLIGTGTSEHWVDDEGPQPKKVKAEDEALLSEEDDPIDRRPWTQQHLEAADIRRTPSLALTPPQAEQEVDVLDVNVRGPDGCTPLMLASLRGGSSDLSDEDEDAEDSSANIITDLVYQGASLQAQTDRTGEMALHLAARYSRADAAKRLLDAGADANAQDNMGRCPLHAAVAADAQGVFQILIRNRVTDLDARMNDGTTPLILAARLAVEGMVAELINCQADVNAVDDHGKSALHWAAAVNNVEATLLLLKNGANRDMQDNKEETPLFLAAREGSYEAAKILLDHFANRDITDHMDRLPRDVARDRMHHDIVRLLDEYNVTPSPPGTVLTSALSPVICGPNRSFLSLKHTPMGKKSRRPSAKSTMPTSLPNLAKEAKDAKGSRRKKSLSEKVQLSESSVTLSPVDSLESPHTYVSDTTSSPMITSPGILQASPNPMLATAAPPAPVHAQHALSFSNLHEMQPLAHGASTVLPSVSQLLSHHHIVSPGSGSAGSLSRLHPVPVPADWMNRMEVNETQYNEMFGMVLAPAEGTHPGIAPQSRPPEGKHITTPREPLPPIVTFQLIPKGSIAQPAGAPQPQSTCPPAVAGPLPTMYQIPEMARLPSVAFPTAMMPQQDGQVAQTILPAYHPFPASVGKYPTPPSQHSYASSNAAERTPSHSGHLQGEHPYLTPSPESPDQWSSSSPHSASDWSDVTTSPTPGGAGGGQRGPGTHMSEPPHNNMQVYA
Assay info: Notch2 binders on small-molecule microarrays, primary screen, biochemical, small-molecule microarray, 635 nm fluorescence, stem cell growth factors (AID 1073)
Assay conditions: Notch2 binding, higher = more signal
Readings of composite z-score for the listed molecules
Form field (numeric): enter value without unit.

Before answering, review these 3 worked examples.
Given the entry CO[C@H]1O[C@H](CO)[C@@H](OC(=O)Nc2ccc(Oc3ccccc3)cc2)[C@H](OC(=O)Nc2ccccc2-c2ccccc2)[C@@H]1OC(=O)Nc1ccccc1-c1ccccc1 , report its measured composite z-score.
1.57

Any idea what its composite z-score is? The molecule is CC(C)N1CC=CC23O[C@@H]4C=CCCOC(=O)C4[C@H]2C(=O)N(CCO)[C@@H]3C1=O (stereo not given in full)
-0.537

I have this molecule here, NC(N)=NCc1cn(CCc2c[nH]c3ccccc23)nn1 , and I need its recorded composite z-score.
0.348

More entries:
What does the data say about its composite z-score? Entry: Cc1ccc(S[C@]2(C(=O)NCc3ccccc3)CC(=O)N(C(C)C)[C@@H]2c2ccc(CO)cc2I)cc1
-1.09

Quick check: composite z-score of C[C@H]1C2=C3C(CC[C@H]4C(OCc5ccc(F)cc5C(F)(F)F)OC[C@](C)([C@@H]34)N(C(=O)OC(C)(C)C)C2)C2COC(=O)OCC21 (stereo not given in full) ?
1.43

Returns the measured composite z-score for the input molecule. Input: CCOC(=O)C[C@H]1[C@H](OC(=O)Cc2ccc3c(c2)OCO3)[C@@H](NC(=O)C2CCCCC2)c2cc(OCCCO)ccc2N1C(=O)c1ccc2ccccc2n1
0.904

Consider the molecule shown here: COc1cc2c(cc1O)C(C)N(Cc1cc3c(cc1Br)OCO3)CC2 (stereo not given) What is its recorded composite z-score?
0.511

GET /values?readout=composite z-score&item= C=CCNC(=O)[C@@H]1[C@H]2C(=O)O[C@H](c3ccccc3)[C@H](c3ccccc3)N2[C@H](c2ccccc2OCCO)[C@@]12C(=O)N(C(=O)OCCOC)c1ccc(C#CC3=CCCCC3)cc12
-0.0189

What does the data say about its composite z-score? Entry: COc1cc(CO)cc(I)c1O[C@H]1C=C(C(=O)NCCO)C[C@@H](N(CC2CCCCC2)C(=O)c2ccc(C(F)(F)F)cc2)[C@@H]1O
0.546

Item under review: COC(=O)[C@@]1(Cc2ccc(OC)cc2)[C@H]2c3cc(C(=O)N(C)C)n(Cc4nc5ccccc5[nH]4)c3C[C@H]2CN1C(=O)c1ccccc1 . Reported composite z-score?
1.76

Tell me the measured composite z-score of COc1ccc(C(O)C2C=CC3C(=O)N(c4ccccc4)C(=O)C3N2Nc2ccccc2)cc1OCc1ccccc1 (stereo not given) , please.
1.51

Would you mind telling me what composite z-score value was observed for COCCCNC(=O)[C@@]1(Sc2ccc(C)cc2)CC(=O)N(C2Cc3ccccc3C2)[C@@H]1c1ccc(CO)cc1I ?
-1.02

# composite z-score lookup, item COC(=O)C1(Cc2ccccc2)C=C2C(=C(c3ccccc3)C(=O)C2C)CN1 (stereo not given)
1.19

# get_value(readout='composite z-score', item= CC(C)(C)OC(=O)CC[C@]1(C(=O)N2CCOCC2)N=C(c2ccc(OCCCO)cc2)O[C@H]1c1ccccc1 )
0.819

Looking for the measured composite z-score of O=C1O[C@H](c2ccccc2)[C@H](c2ccccc2)N2[C@H]1[C@@H](C(=O)O)[C@]1(C(=O)Nc3ccccc31)[C@H]2c1ccc(O)cc1 , can you help?
-0.844
